System: A-431
Assay: Antiproliferative activity against human A431 cells assessed as inhibition of cell proliferation after 72 hrs by MTT assay
Type: functional, cell-based
Details: A-431, 72 h
pIC50: −log10 of the molar value.
Assay Readout: pIC50

Compound | Tested On | Op | Value Reported
C=C1C(=O)O[C@@H]2C[C@@]3(C)O[C@H](O[C@H]3CC(=O)C(C)=O)[C@@H](OC(=O)CC(C)C)[C@@H]12 (relative stereo) | A-431 | = | 5.17
C=C1C(=O)O[C@@H]2[C@@H]1[C@H](OC(=O)CC(C)C)C[C@@]1(C)[C@H](O)C[C@H](OC(C)=O)C(=C)[C@H]21 (relative stereo) | A-431 | = | 5.28
C=C1C(=O)O[C@@H]2/C=C(\C)[C@H](O)C[C@H]3O[C@]3(C)C[C@@H](OC(=O)CC(C)C)[C@@H]12 (relative stereo) | A-431 | = | 5.14
C=C1C(=O)O[C@@H]2[C@@H](O)[C@@H](C)C3=CC(=O)[C@](C)(O3)[C@H](O)[C@@H](OC(=O)CC(C)C)[C@@H]12 (relative stereo) | A-431 | < | 5.00
C=C1C(=O)O[C@@H]2C[C@]3(C)O[C@@H](O[C@@H]3CC(=O)C(C)=O)[C@@H](OC(=O)CC(C)C)[C@@H]12 (relative stereo) | A-431 | < | 5.00

Source: ChEMBL document CHEMBL3120162
